Where these numbers come from: patent US7989464B2

- test-target: hmGluR1 receptor (Homo sapiens, UniProt Q13255)
- Construct: expressed in transfected cells
- Sequence (Q13255 19-1194): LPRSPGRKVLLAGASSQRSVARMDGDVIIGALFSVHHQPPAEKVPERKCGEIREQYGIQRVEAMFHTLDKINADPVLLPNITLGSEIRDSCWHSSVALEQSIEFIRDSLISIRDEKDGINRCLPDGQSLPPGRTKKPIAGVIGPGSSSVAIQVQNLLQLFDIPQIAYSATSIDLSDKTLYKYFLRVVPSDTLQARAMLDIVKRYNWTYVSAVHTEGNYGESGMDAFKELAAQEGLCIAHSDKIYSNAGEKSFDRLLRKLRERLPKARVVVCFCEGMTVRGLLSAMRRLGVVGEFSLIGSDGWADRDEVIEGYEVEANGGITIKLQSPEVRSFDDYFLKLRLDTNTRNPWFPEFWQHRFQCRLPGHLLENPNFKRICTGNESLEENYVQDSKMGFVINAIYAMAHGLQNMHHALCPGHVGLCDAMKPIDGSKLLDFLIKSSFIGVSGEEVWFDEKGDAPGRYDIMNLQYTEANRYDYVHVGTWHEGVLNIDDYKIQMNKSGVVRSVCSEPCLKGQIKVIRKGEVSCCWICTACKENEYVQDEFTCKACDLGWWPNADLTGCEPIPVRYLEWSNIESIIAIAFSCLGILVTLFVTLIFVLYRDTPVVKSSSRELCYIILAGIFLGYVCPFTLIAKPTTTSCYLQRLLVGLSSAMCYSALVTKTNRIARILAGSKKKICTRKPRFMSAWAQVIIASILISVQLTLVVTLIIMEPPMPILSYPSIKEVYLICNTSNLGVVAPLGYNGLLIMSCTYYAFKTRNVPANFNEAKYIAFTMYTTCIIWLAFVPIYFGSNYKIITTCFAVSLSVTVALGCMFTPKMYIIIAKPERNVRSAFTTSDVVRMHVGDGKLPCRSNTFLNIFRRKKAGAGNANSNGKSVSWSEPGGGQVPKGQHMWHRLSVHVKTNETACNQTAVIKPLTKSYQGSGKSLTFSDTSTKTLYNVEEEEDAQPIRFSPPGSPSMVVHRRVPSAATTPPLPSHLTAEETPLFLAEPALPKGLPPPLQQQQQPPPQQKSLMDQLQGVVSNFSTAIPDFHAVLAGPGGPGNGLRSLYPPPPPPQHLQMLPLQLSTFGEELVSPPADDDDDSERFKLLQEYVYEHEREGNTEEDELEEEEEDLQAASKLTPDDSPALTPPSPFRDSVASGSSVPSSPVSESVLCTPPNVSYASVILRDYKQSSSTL
- experiment-description: IC50 determination: intracellular calcium mobilization (FLIPR) upon Quisqualate stimulation in CHO cells stably expressing hmGluR1
- Type: cell-based
- condition-label: against Quisqualate 1 μM (EC80), class symbols, read-out: mGIuR 1 IC50
// IC50 lookup, one value per entry

molecule: CNc1ccnc2sc3c(=O)n(-c4ccc(OC)cc4)cnc3c12 [28I]
test-target: hmGluR1 receptor (Homo sapiens, UniProt Q13255)
IC50: < 50 nM
//
molecule: CN(C)c1ccnc2sc3c(=O)[nH]cnc3c12
test-target: hmGluR1 receptor (Homo sapiens, UniProt Q13255)
IC50: > 1000 nM
//
molecule: COc1ccc(-n2cnc3c(sc4nccc(N(C)C)c43)c2=O)cc1Cl
test-target: hmGluR1 receptor (Homo sapiens, UniProt Q13255)
IC50: 50 to 150 nM
//
molecule: COc1cc(Br)c(-n2cnc3c(sc4nccc(N(C)C)c43)c2=O)c(Br)c1
test-target: hmGluR1 receptor (Homo sapiens, UniProt Q13255)
IC50: > 1000 nM
//
molecule: CCCNc1ccnc2sc3c(=O)n(C4CCCCC4)cnc3c12 [28Q]
test-target: hmGluR1 receptor (Homo sapiens, UniProt Q13255)
IC50: 50 to 150 nM
//
molecule: CN(C)c1ccnc2sc3c(=O)n(Nc4ccccc4)cnc3c12 [60B]
test-target: hmGluR1 receptor (Homo sapiens, UniProt Q13255)
IC50: < 50 nM
//
molecule: Cc1ccc(-n2cnc3c([nH]c4nccc(N(C)C)c43)c2=O)cc1 [135A]
test-target: hmGluR1 receptor (Homo sapiens, UniProt Q13255)
IC50: > 1000 nM
//
molecule: COC(=O)c1sccc1-n1cnc2c(sc3nccc(N(C)C)c32)c1=O
test-target: hmGluR1 receptor (Homo sapiens, UniProt Q13255)
IC50: > 1000 nM
//
molecule: O=C(Nc1ccnc2sc3c(=O)n(C4CCCCC4)cnc3c12)C1CCC1 [73D]
test-target: hmGluR1 receptor (Homo sapiens, UniProt Q13255)
IC50: > 1000 nM
//
molecule: O=c1c2sc3nccc(Nc4ccccc4)c3c2ncn1C1CCCCC1 [28H]
test-target: hmGluR1 receptor (Homo sapiens, UniProt Q13255)
IC50: > 1000 nM

## Input Please state recorded IC50 (tested on hmGluR1 receptor (Homo sapiens, UniProt Q13255)) of CN(C)c1ccnc2sc3c(=O)n(-c4csc5ccccc45)cnc3c12 [15AG]
## Output < 50 nM

## Input Next molecule: `CS(=O)(=O)N1CCN(c2ccnc3sc4c(=O)n(C5CCCCC5)cnc4c23)CC1`
## Output 150 to 1000 nM
